Origin of the recorded values: patent US20130296311A1

System: HCV 1b_Huh-Luc/Neo-ET cell line persistently expressing a bicistronic genotype 1b replicon in Huh 7 cells
assay-comment: HCV replicon assay (luciferase readout, 72 h)
Format: cell-based, HCV genotype 1b
condition-summary: Hepatitis C virus, Huh-7, 72 h, read-out: Inhibition of HCV genotype 1b
pEC50: −log10 of the molar value.
readout-name: pEC50

1) COC(=O)N[C@@H](C(=O)N1CCC[C@H]1c1ncc(-c2ccc(C#Cc3ccc(-c4cnc([C@@H]5CCCN5C(=O)c5cccnc5)[nH]4)cc3)cc2)[nH]1)c1ccccc1 [Compound 183] = > 9.00

Query string: Item under review: COC(=O)N[C@H](C(=O)N1CCC[C@H]1c1nc(-c2cnc3cc(C#Cc4cnc([C@@H]5CCCN5C(=O)[C@@H](NC(=O)OC)C(C)C)[nH]4)ccc3c2)c[nH]1)C(C)C [Compound 1076] . Reported pEC50?
Result string: > 9.00

Query string: // next record COC(=O)N[C@H](C(=O)N1CCC[C@H]1c1nc(-c2ccc3cc(C#Cc4cnc([C@@H]5CCCN5C(=O)[C@@H](NC(=O)OC)C(C)C)[nH]4)ccc3c2)c[nH]1)c1ccccc1 [Compound 1078]
Result string: > 9.00

###

Reported EC50 values for the following compounds.
Tested on: HCV 1b_Huh-Luc/Neo-ET cell line persistently expressing a bicistronic genotype 1b replicon in Huh 7 cells
assay-comment: HCV replicon assay (luciferase readout, 72 h)
Assay type: cell-based, HCV genotype 1b
condition-summary: Hepatitis C virus, Huh-7, 72 h, read-out: Inhibition of HCV genotype 1b

1) COC(=O)N[C@@H](C(=O)N1CCC[C@H]1c1ncc(C#Cc2ccc(-c3cnc([C@@H]4CCCN4C(=O)[C@@H](c4ccccc4)N(C)C)[nH]3)cc2)[nH]1)c1ccccc1 = < 1 nM

Query string: Give the measured EC50 of `COC(=O)N[C@H](C(=O)N1CCC[C@H]1c1ncc(-c2ccc(C#Cc3ccc4nc([C@@H]5CCCN5C(=O)[C@@H](NC(=O)OC)C(C)C)[nH]c4c3)cc2)[nH]1)C(C)C` .
Result string: < 1 nM

Query string: Try `COC(=O)N[C@H](C(=O)N1CCC[C@H]1c1nc(-c2cnc3cc(C#Cc4ccc(-c5cnc([C@@H]6CCCN6C(=O)[C@@H](NC(=O)OC)c6ccccc6)[nH]5)cc4)ccc3c2)c[nH]1)c1ccccc1` next.
Result string: 10 to 999 nM

Query string: Request: `COC(=O)N[C@@H](C(=O)N1CCC[C@H]1c1ncc(-c2ccc(C#Cc3ccc(-c4cnc([C@@H]5CCCN5C(=O)[C@H](NC(=O)N5CCCC5)c5ccccc5)[nH]4)cc3)cc2)[nH]1)c1ccccc1`
Result string: < 1 nM

Query string: Now give it for `COC(=O)N[C@H](C(=O)N1CCC[C@H]1c1ncc(-c2ccc(C#Cc3ccc(-c4cnc([C@@H]5CCCN5C(=O)[C@@H](c5ccccc5)N5CCC(C)(O)CC5)[nH]4)cc3)cc2)[nH]1)C(C)C` too.
Result string: < 1 nM

###

Tested on: HCV 1b_Huh-Luc/Neo-ET cell line persistently expressing a bicistronic genotype 1b replicon in Huh 7 cells
assay-comment: HCV replicon assay (luciferase readout, 72 h)
Format: cell-based, HCV genotype 1b
condition-summary: Hepatitis C virus, Huh-7, 72 h, read-out: Inhibition of HCV genotype 1b
pEC50: −log10 of the molar value.
The following compounds are listed with their measured pEC50 values.

Some compounds with known pEC50 results, for comparison:
1. COC(=O)N[C@H](C(=O)N1CCC[C@H]1c1ncc(-c2ccc(C#Cc3ccc(-c4cnc([C@H](C)NC(=O)[C@@H](C(C)C)N(C)C)[nH]4)cc3)cc2)[nH]1)C(C)C = 6.00 to 8.00
2. COC(=O)N[C@H](C(=O)N1CCC[C@H]1c1ncc(-c2ccc(C#Cc3ccc(-c4cnc([C@@H]5CCCN5C(=O)[C@@H](c5ccccc5)N5CCCCC5)[nH]4)cc3)cc2)[nH]1)C(C)C = > 9.00

Query string: Which pEC50 value belongs to `CN(C)[C@@H](C(=O)N1CCC[C@H]1c1ncc(-c2ccc(C#Cc3ccc(-c4cnc([C@@H]5CCCN5C(=O)[C@H](NC(=O)C5CC5)c5ccccc5)[nH]4)cc3)cc2)[nH]1)c1ccccc1` ?
Result string: > 9.00

###

Measured pEC50, listed per entry.
Tested on: HCV 1b_Huh-Luc/Neo-ET cell line persistently expressing a bicistronic genotype 1b replicon in Huh 7 cells
assay-comment: HCV replicon assay (luciferase readout, 72 h)
Assay type: cell-based, HCV genotype 1b
condition-summary: Hepatitis C virus, Huh-7, 72 h, read-out: Inhibition of HCV
pEC50: −log10 of the molar value.

Previously resolved entries follow.
1) COC(=O)N[C@@H](C(=O)N1CCC[C@H]1c1nc2ccc(C#Cc3ccc4nc([C@@H]5CCCN5C(=O)[C@H](NC(=O)OC)C(C)C)[nH]c4c3)cc2[nH]1)C(C)C [Compound 853] = > 9.00
2) COC(=O)N[C@@H](C(=O)N1CCC[C@H]1c1nc2ccc(C#Cc3ccc4nc([C@@H]5CCCN5C(=O)[C@H](NC(=O)OC)c5ccccc5)[nH]c4c3)cc2[nH]1)c1ccccc1 [Compound 851] = > 9.00

Would you kindly look at the next entry?
Query string: I am curious: what pEC50 value has been reported for COC(=O)N[C@H](C(=O)N1CCC[C@H]1c1nc2ccc(C#Cc3ccc4nc([C@@H]5CCCN5C(=O)[C@@H](NC(=O)OC)C(C)C)[nH]c4c3)cc2[nH]1)C(C)C [Compound 852] ?
Result string: > 9.00

###

Test system: HCV 1b_Huh-Luc/Neo-ET cell line persistently expressing a bicistronic genotype 1b replicon in Huh 7 cells
assay-comment: HCV replicon assay (luciferase readout, 72 h)
Assay type: cell-based, HCV genotype 1b
condition-summary: Hepatitis C virus, Huh-7, 72 h, read-out: Inhibition of HCV genotype 1b
Listed here: items and their measured EC50.

1) COC(=O)N1CCC[C@H]1C(=O)N1CCC[C@H]1c1ncc(-c2ccc(C#Cc3ccc4nc([C@@H]5CCCN5C(=O)[C@@H]5CCCN5C(=O)OC)[nH]c4c3)cc2)[nH]1 = 0.01 to 0.999 µM
2) CC(C)[C@@H](C(=O)N1CCC[C@H]1c1ncc(-c2ccc(C#Cc3ccc(-c4cnc([C@@H]5CCCN5C(=O)[C@H](C(C)C)N5CCOC5=O)[nH]4)cc3)cc2)[nH]1)N1CCOC1=O = 0.01 to 0.999 µM

Query string: Query: EC50; subject: `COC(=O)N[C@H](C(=O)N1CC[C@H](O)[C@H]1c1ncc(-c2ccc(C#Cc3ccc4nc([C@@H]5CCCN5C(=O)[C@@H](NC(=O)OC)C(C)C)[nH]c4c3)cc2)[nH]1)C(C)C`
Result string: < 0.001 µM

###

Test system: HCV 1b_Huh-Luc/Neo-ET cell line persistently expressing a bicistronic genotype 1b replicon in Huh 7 cells
assay-comment: HCV replicon assay (luciferase readout, 72 h)
Format: cell-based, HCV genotype 1b
condition-summary: Hepatitis C virus, Huh-7, 72 h, read-out: Inhibition of HCV genotype 1b
Protocol: Biological activity of the compounds of the invention was determined using an HCV replicon assay. The HCV 1b_Huh-Luc/Neo-ET cell line persistently expressing a bicistronic genotype 1b replicon in Huh 7 cells was obtained from ReBLikon GMBH. This cell line was used to test compound inhibition using luciferase enzyme activity readout as a measurement of compound inhibition of replicon levels. […] The EC50 value was determined using GraphPad Prism and the following equation: […]
readout-name: EC50

Here are 4 compounds together with their reported answers.
1. CN1CCN(C(=O)N[C@@H](C(=O)N2CCC[C@H]2c2cc(-c3ccc(C#Cc4ccc(-c5cnc([C@@H]6CCCN6C(=O)[C@H](NC(=O)N6CCN(C)CC6)c6ccccc6)[nH]5)cc4)cc3)n[nH]2)c2ccccc2)CC1 [Compound 213] = < 1 nM
2. COC(=O)N[C@@H](C(=O)N1CCC[C@H]1c1ncc(C#Cc2ccc(C#Cc3cnc([C@@H]4CCCN4C(=O)[C@@H](c4ccccc4)N4CCOCC4)[nH]3)cc2)[nH]1)c1ccccc1 [Compound 313] = < 1 nM
3. COC(=O)N[C@@H](C(=O)N1CCC[C@H]1c1ncc(-c2ccc(C#Cc3ccc(-c4cnc([C@@H]5CCCN5C(=O)[C@H](NC(=O)[C@H]5CCCN5C)c5ccccc5)[nH]4)cc3)cc2)[nH]1)c1ccccc1 [Compound 204] = < 1 nM
4. CC(C)[C@H](NC(=O)N1CCN(C)CC1)C(=O)N1CCC[C@H]1c1ncc(-c2ccc(C#Cc3ccc(-c4cnc([C@@H]5CCCN5C(=O)[C@@H](NC(=O)N5CCN(C)CC5)C(C)C)[nH]4)cc3)cc2)[nH]1 [Compound 287] = > 1000 nM

Query string: Would you kindly share the measured EC50 for CCN(CC)[C@@H](C(=O)N1CCC[C@H]1c1ncc(-c2ccc(C#Cc3ccc(-c4cnc([C@@H]5CCCN5C(=O)[C@H](NS(C)(=O)=O)c5ccccc5)[nH]4)cc3)cc2)[nH]1)c1ccccc1 [Compound 229] ?
Result string: < 1 nM
